# pKd listing for each entry below
targetEntity: T1, EsCas13d, nuclease-dead (Eubacterium siraeum, UniProt B0MS50, R295A;H300A;R849A;H854A)
T1 sequence: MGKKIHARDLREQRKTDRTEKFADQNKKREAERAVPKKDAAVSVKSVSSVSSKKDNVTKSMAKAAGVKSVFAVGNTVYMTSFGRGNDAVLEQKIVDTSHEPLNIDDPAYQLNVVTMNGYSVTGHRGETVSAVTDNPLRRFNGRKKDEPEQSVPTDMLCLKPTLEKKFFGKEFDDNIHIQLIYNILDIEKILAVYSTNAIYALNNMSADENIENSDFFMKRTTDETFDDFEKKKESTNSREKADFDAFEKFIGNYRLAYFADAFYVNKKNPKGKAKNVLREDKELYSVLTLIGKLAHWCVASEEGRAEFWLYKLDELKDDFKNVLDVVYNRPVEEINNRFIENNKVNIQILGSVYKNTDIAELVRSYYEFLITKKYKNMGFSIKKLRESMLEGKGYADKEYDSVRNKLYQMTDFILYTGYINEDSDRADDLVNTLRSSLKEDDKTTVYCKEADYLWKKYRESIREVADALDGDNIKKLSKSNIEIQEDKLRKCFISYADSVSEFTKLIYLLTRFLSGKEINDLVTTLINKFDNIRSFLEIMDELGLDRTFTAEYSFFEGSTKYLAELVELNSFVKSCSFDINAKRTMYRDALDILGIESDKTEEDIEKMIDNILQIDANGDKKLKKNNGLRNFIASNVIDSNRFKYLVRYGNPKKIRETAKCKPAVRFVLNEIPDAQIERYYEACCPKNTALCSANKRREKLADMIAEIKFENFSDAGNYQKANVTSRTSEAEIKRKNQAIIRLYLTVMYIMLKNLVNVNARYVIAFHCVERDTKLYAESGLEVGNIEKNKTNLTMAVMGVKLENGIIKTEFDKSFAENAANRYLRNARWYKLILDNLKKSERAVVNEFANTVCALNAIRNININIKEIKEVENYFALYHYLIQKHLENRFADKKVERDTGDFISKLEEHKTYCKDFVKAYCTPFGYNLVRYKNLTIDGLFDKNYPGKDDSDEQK
experiment: crRNA (strand 1, pre-loaded); Mg2+; 40 mM Tris-HCl pH 7.5, 150 mM NaCl, 6 mM MgCl2, 1 mM DTT, 0.1% Tween-20, 0.2 mg/ml BSA; 25 C; 10 min per concentration, then washed
recordedConditions: tags: His6-TwinStrep-SUMO cleaved; N-terminal SNAP kept (SNAP-Surface 488); label: 3' end held by stalled T7 RNA polymerase
pKd: −log10 of the molar value.
quantity: pKd

INSERT INTO results (binder, experimentalvalue) VALUES
  ('target 1 A20C,C22G (mixed) RNA 1: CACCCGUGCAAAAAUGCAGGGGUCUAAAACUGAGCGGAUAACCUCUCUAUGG RNA 2: GGGAAUGGAUCCACAUCUACGAAUUCGUAGCCUAGAGAGGUUAUCCGCUCACCGAGAUCGGAAGAGCACACGU', 7.41),
  ('target 2 MT 5''PFS CGG 3''PFS UGC (mixed) RNA 1: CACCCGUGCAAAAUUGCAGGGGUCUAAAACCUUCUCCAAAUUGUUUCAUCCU RNA 2: GGGAAUGGAUCCACAUCUACGAAUUCCGGAGGAUGAAACAAUUUGGAGAAGUGCAGAUCGGAAGAGCACACGU', 8.37),
  ('target 1 insU 3'' of 9,insC 3'' of 9 (mixed) RNA 1: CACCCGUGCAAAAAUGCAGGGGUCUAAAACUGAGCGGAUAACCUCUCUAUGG RNA 2: GGGAAUGGAUCCACAUCUACGAAUUCGUACCAUAGAGAGGUUAUCUCCGCUCACCGAGAUCGGAAGAGCACACGU', 7.67),
  ('target 2 MT 5''PFS GUA 3''PFS ACC (mixed) RNA 1: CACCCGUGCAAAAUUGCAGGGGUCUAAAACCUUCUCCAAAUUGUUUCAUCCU RNA 2: GGGAAUGGAUCCACAUCUACGAAUUCGUAAGGAUGAAACAAUUUGGAGAAGACCAGAUCGGAAGAGCACACGU', 7.66);
